measured target: glucosylceramide synthase (GCS) (Homo sapiens (Human), UniProt Q16739)
Sequence (Q16739 whole entry): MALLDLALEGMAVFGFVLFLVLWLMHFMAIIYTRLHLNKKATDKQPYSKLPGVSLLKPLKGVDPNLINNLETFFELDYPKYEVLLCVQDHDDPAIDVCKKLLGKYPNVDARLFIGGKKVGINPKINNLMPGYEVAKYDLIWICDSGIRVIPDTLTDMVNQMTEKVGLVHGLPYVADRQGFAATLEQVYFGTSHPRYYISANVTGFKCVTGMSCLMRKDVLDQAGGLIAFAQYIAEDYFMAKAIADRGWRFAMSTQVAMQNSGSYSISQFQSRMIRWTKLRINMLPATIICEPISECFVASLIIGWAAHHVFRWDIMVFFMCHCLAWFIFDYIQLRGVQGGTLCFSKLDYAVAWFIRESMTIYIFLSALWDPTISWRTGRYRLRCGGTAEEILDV
experimental details: Evaluation of inhibitory activities against GCS (A549 cell lysate, NBD C6-ceramide, HPLC)
Assay type: biochemical
Here the recorded log10 of IC50 is given for each entry.
Reminder: these figures are log10 of reported IC50, in nM before transformation.

>  <compound structure>
CCCCOc1c(C)cc(-c2ccc3c(c2)CCC(C)(C)[C@H]3NC(=O)O[C@@H]2CN3CCC2CC3)cc1C

>  <observed>
0.22

$$$$
>  <compound structure>
CCCc1ccc(-c2cc3c(cc2C)[C@H](NC(=O)O[C@@H]2CN4CCC2CC4)C(C)(C)C3)cc1

>  <observed>
-0.51

$$$$
>  <compound structure>
CC(C)(C)Oc1ccc(-c2ccc3c(c2)CC(C)(C)[C@H]3NC(=O)O[C@@H]2CN3CCC2CC3)cc1

>  <observed>
-0.05

$$$$
>  <compound structure>
CC(C)Oc1cc(-c2ccc3c(c2)CC(C)(C)[C@H]3NC(=O)O[C@@H]2CN3CCC2CC3)ccc1Cl

>  <observed>
0.92

$$$$
>  <compound structure>
COc1ccc(-c2ccc3c(c2)CCC(C)(C)[C@H]3NC(=O)O[C@@H]2CN3CCC2CC3)cc1

>  <observed>
-0.16

$$$$

Param item = CCc1ccc(-c2cc3c(cc2F)[C@H](NC(=O)O[C@@H]2CN4CCC2CC4)C(C)(C)C3)cc1F ; retrieve measured log10 of IC50. -0.43

Param item = CC(C)Oc1c(Cl)cc(-c2cc3c(cc2F)[C@H](NC(=O)O[C@@H]2CN4CCC2CC4)C(C)(C)C3)cc1Cl ; retrieve measured log10 of IC50. 0.66

Param item = CCCCc1ccc(-c2cc3c(cc2OCC)[C@H](NC(=O)O[C@@H]2CN4CCC2CC4)C(C)(C)C3)cc1 ; retrieve measured log10 of IC50. -0.12
